# study system: 26S proteasome
# protocol: Inhibition of trypsin-like activity of human 20S proteasome using Ac-RLR-AMC as substrate
# Assay type: protein-complex assay
pIC50: −log10 of the molar value.
observed property: pIC50

[
  {
    "test smiles": "CC(=O)N[C@@H](CC(=O)NCCC(COCc1ccccc1)COCc1ccccc1)C(=O)N[C@@H](CC(C)C)B1O[C@@H]2C[C@@H]3C[C@@H](C3(C)C)[C@]2(C)O1",
    "pIC50": 5.57
  }
]

[1] CC(C)C[C@H](NC(=O)[C@H](CC(=O)NCCC(COCc1ccccc1)COCc1ccccc1)NC(=O)c1ccccc1)B1O[C@@H]2C[C@@H]3C[C@@H](C3(C)C)[C@]2(C)O1
[2] CC(=O)N[C@@H](CC(=O)NCC(COCc1ccccc1)COCc1ccccc1)C(=O)N[C@@H](CC(C)C)B1O[C@@H]2C[C@@H]3C[C@@H](C3(C)C)[C@]2(C)O1
Task item: Among 1 and 2 , which shows a numerically higher pIC50 result? Output the label that corresponds to your choice.
Reply: 2

----------
# System: HCT-116
# protocol: Inhibition of human HCT116 cell growth
# Assay type: functional, cell-based
observed property: IC50 (nM)

[I] CC(C)C[C@H](NC(=O)[C@H](Cc1ccccc1)NC(=O)c1cnccn1)B(O)O
[II] CC(=O)N[C@@H](CC(=O)NCCC(COCc1ccccc1)COCc1ccccc1)C(=O)N[C@@H](CC(C)C)B1O[C@@H]2C[C@@H]3C[C@@H](C3(C)C)[C@]2(C)O1
[III] CC(C)C[C@H](NC(=O)[C@H](CC(=O)NCCC(COCc1ccccc1)COCc1ccccc1)NC(=O)c1ccccc1)B1O[C@@H]2C[C@@H]3C[C@@H](C3(C)C)[C@]2(C)O1
[IV] CC(C)C[C@H](NC(=O)[C@H](CC(=O)NCCC(COCc1ccccc1)COCc1ccccc1)NC(=O)c1cccc(-c2ccccc2)n1)B1O[C@@H]2C[C@@H]3C[C@@H](C3(C)C)[C@]2(C)O1
[V] CC[C@H](C)[C@@H]1C(=O)O[C@H]1C(=O)N[C@H]1C[C@@H]1C[C@@H](CCc1ccccc1)NC(=O)[C@H](C)NC(=O)OCc1ccccc1
Task item: Order these by IC50, descending, and give the full ranking. Write the labels out in the order the request specifies.
Reply: V, IV, III, II, I

[A] CC(=O)N[C@@H](CCC(=O)NCCCC(COCc1ccccc1)COCc1ccccc1)C(=O)N[C@@H](CC(C)C)B1O[C@@H]2C[C@@H]3C[C@@H](C3(C)C)[C@]2(C)O1
[B] CC(C)C[C@H](NC(=O)[C@H](CC(=O)NCCC(COCc1ccccc1)COCc1ccccc1)NC(=O)c1cnccn1)B1O[C@@H]2C[C@@H]3C[C@@H](C3(C)C)[C@]2(C)O1
Task item: Lower value for measured IC50? Options: A , B Write down the label attached to your selection.
Reply: B

[P] CC(=O)N[C@@H](CC(=O)NCC(COCc1ccccc1)COCc1ccccc1)C(=O)N[C@@H](CC(C)C)B(O)O
[Q] CC(=O)N[C@@H](CC(=O)NCCCCOCc1ccccc1)C(=O)N[C@@H](CC(C)C)B1O[C@@H]2C[C@@H]3C[C@@H](C3(C)C)[C@]2(C)O1
Task item: Please indicate which has the smaller reported IC50: P , or Q . // respond with label for picked entry
Reply: P
(P: 79.6 nM, Q: 130 nM)

----------
# study system: Cathepsin B (Homo sapiens)
# protocol: Inhibition of recombinant cathepsin B (unknown origin) using Z-Leu-Arg-AMC as substrate by spectrofluorometer analysis
observed property: IC50

The examples below pair each entry with its known result.
[
  {
    "test smiles": "CC(=O)N[C@@H](CC(=O)NCCCCOCc1ccccc1)C(=O)N[C@@H](CC(C)C)B1O[C@@H]2C[C@@H]3C[C@@H](C3(C)C)[C@]2(C)O1",
    "IC50": "> 30 µM"
  },
  {
    "test smiles": "CC(C)C[C@H](NC(=O)[C@H](CCc1ccccc1)NC(=O)CN1CCOCC1)C(=O)N[C@@H](Cc1ccccc1)C(=O)N[C@@H](CC(C)C)C(=O)[C@@]1(C)CO1",
    "IC50": "11 µM"
  },
  {
    "test smiles": "CC(C)C[C@H](NC(=O)[C@H](Cc1ccccc1)NC(=O)c1cnccn1)B(O)O",
    "IC50": "> 30 µM"
  }
]

We next turn to a different molecule, shown below.
Task item: Quick check: IC50 of `CC(=O)N[C@@H](CC(=O)NCCC(COCc1ccccc1)COCc1ccccc1)C(=O)N[C@@H](CC(C)C)B1O[C@@H]2C[C@@H]3C[C@@H](C3(C)C)[C@]2(C)O1` ?
Reply: > 30 µM

----------
# study system: 26S proteasome
# protocol: Inhibition of chymotrypsin-like activity of human 20S proteasome using Suc-LLVY-AMC as substrate
# Assay type: protein-complex assay
observed property: IC50 (nM)

Consider the worked cases shown below.
[
  {
    "test smiles": "CC(=O)N[C@@H](CCC(=O)NCCCC(COCc1ccccc1)COCc1ccccc1)C(=O)N[C@@H](CC(C)C)B1O[C@@H]2C[C@@H]3C[C@@H](C3(C)C)[C@]2(C)O1",
    "IC50, nM": 4.1
  },
  {
    "test smiles": "CC(C)C[C@H](NC(=O)[C@H](CC(=O)NCCC(COCc1ccccc1)COCc1ccccc1)NC(=O)c1cc(Cl)ccc1Cl)B1O[C@@H]2C[C@@H]3C[C@@H](C3(C)C)[C@]2(C)O1",
    "IC50, nM": 5.9
  },
  {
    "test smiles": "CC(=O)N[C@@H](CC(=O)NCCCC(COCc1ccccc1)COCc1ccccc1)C(=O)N[C@@H](CC(C)C)B1O[C@@H]2C[C@@H]3C[C@@H](C3(C)C)[C@]2(C)O1",
    "IC50, nM": 4.1
  }
]

[P] CC(=O)N[C@@H](CCC(=O)NCC(COCc1ccccc1)COCc1ccccc1)C(=O)N[C@@H](CC(C)C)B1O[C@@H]2C[C@@H]3C[C@@H](C3(C)C)[C@]2(C)O1
[Q] CC(C)C[C@H](NC(=O)[C@H](CC(=O)NCCC(COCc1ccccc1)COCc1ccccc1)NC(=O)c1ccccc1)B1O[C@@H]2C[C@@H]3C[C@@H](C3(C)C)[C@]2(C)O1
Task item: Pick one: P or Q . Which has the bigger IC50 number? Answer with the label corresponding to your selection.
Reply: Q
(Q: 7.8 nM, P: 5.1 nM)

----------
# study system: Proteasome Macropain subunit MB1 (Homo sapiens, UniProt P28074)
# Sequence (P28074 whole entry): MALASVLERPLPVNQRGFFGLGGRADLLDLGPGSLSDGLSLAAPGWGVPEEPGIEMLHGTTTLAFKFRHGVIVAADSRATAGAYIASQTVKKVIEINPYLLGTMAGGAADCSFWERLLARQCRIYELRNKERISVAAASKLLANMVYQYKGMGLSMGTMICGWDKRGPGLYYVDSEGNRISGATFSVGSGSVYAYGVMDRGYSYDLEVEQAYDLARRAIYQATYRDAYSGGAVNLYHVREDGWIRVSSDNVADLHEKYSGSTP
# protocol: Inhibition of beta5 subunit of constitutive proteasome (unknown origin) by active-site ELISA
pIC50: −log10 of the molar value.
observed property: pIC50

[P] CC(=O)N[C@@H](CC(=O)NCCCCOCc1ccccc1)C(=O)N[C@@H](CC(C)C)B1O[C@@H]2C[C@@H]3C[C@@H](C3(C)C)[C@]2(C)O1
[Q] CC(=O)N[C@@H](CC(=O)NCCC(COCc1ccccc1)COCc1ccccc1)C(=O)N[C@@H](CC(C)C)B1O[C@@H]2C[C@@H]3C[C@@H](C3(C)C)[C@]2(C)O1
Task item: Hi there! Just curious which has the higher pIC50 between P and Q . Provide the label of your selected option as the answer.
Reply: Q
(Q: 6.85, P: 6.55)

----------
# study system: 26S proteasome
# protocol: Inhibition of caspase-like activity of human 20S proteasome using Ac-nLPnLD-AMC as substrate
# Format: protein-complex assay
pIC50: −log10 of the molar value.
observed property: pIC50

[A] CC(=O)N[C@@H](CC(=O)NCC(COCc1ccccc1)COCc1ccccc1)C(=O)N[C@@H](CC(C)C)B1O[C@@H]2C[C@@H]3C[C@@H](C3(C)C)[C@]2(C)O1
[B] CC(=O)N[C@@H](CCC(=O)NCCC(COCc1ccccc1)COCc1ccccc1)C(=O)N[C@@H](CC(C)C)B1O[C@@H]2C[C@@H]3C[C@@H](C3(C)C)[C@]2(C)O1
[C] CC(=O)N[C@@H](CCC(=O)NCCCC(COCc1ccccc1)COCc1ccccc1)C(=O)N[C@@H](CC(C)C)B1O[C@@H]2C[C@@H]3C[C@@H](C3(C)C)[C@]2(C)O1
Task item: Kindly sort the 3 compounds above from the smallest to the largest pIC50. List the labels according to the requested ordering.
Reply: A, B, C
(A: 6.85, B: 7.12, C: 7.34)

[1] CC(C)C[C@H](NC(=O)[C@H](CC(=O)NCCC(COCc1ccccc1)COCc1ccccc1)NC(=O)c1cnccn1)B1O[C@@H]2C[C@@H]3C[C@@H](C3(C)C)[C@]2(C)O1
[2] CC(=O)N[C@@H](CCC(=O)NCC(COCc1ccccc1)COCc1ccccc1)C(=O)N[C@@H](CC(C)C)B1O[C@@H]2C[C@@H]3C[C@@H](C3(C)C)[C@]2(C)O1
Task item: Of 1 versus 2 , which is the one with smaller reported pIC50? Record your answer as the label of the chosen record.
Reply: 1
